METHOD SUMMARY: chemical genetic growth profiling, strain panel (AID 1159580);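 note: tested at 20 µM; growth read once vehicle control cultures reached saturation at 30 °C; 1 = growth at the plate median or of vehicle wells; lower values mean less growth of the strain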
STUDY CONDITIONS: S. cerevisiae deletion strains, growth OD, locus YPR135W, strain CTF4, active compounds read low
Hit rate of the full screen: of about 5,500 compounds, about 2,000 (36%) were called active. Not shown: some 18% with an inconclusive outcome. This is one part of the list.

MOLECULE	normalized growth
O=C(NCCSCc1ccco1)c1ccc(Cl)cc1	1.02
CC(=O)Nc1cc([N+](=O)[O-])ccc1-n1cc(C)c(C(F)(F)F)n1	0.905
CCCCNC(=O)NCCSCc1ccco1	1.05
COC(=O)c1cc([N+](=O)[O-])ccc1NC(C)=O	0.992
O=C(NCCSCc1ccc(Cl)cc1)c1ccc(Cl)cc1	1.07
O=C(NCCSCc1ccco1)Nc1cc(Cl)cc(Cl)c1	0.841

====

METHOD SUMMARY: chemical genetic growth profiling, strain panel (AID 1159580);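 note: tested at 20 µM; growth read once vehicle control cultures reached saturation at 30 °C; 1 = growth at the plate median or of vehicle wells; lower values mean less growth of the strain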
STUDY CONDITIONS: S. cerevisiae deletion strains, growth OD, locus YNL153C, strain GIM3, active compounds read low
The whole screen tested about 5,500 compounds, of which about 2,000 (36%) were called active. Not shown: some 18% with an inconclusive outcome. This is one part of the list.

COMPOUND	normalized growth
O=C(NCCSCc1ccco1)c1ccc(Cl)cc1	0.984
O=[N+]([O-])c1ccc(SC2=NCCN2)c(Cl)c1	1.02
O=C(CCCCCCCCCCCCC1CCCC1)Nc1ccc(S(=O)(=O)c2ccc(NC(=O)CCCCCCCCCCCCC3CCCC3)cc2)cc1	1.02
CSc1c(C#N)c(-c2cccs2)nn1C	0.959
COC(=O)c1ccc(-c2ccc(Cl)cc2)s1	0.872
CN1CCCC12NCCc1c2[nH]c2ccccc12 (centres undefined)	1
Cc1onc(NC(=O)NC(=O)c2c(F)cccc2Cl)c1Br	1.02
O=c1[nH]c(=O)n(C2C[C@@H](O)[C@@H](CO)O2)cc1F (some centres undefined)	1.04
CCOC(=O)N/N=C\c1cccs1	0.996
CC(C)(C)NS(=O)(=O)NC(C)(C)C	1.01
COc1cc(OC)c2c(=O)c(-c3ccccc3)c(C)oc2c1OC	1.01
CC(=O)Nc1cc([N+](=O)[O-])ccc1-n1cc(C)c(C(F)(F)F)n1	0.985
N[C@@H](CCC(=O)N[C@H](CSN=O)C(=O)NCC(=O)O)C(=O)O	1.01
Nc1ncnc2c1ncn2C1C[C@H](O)[C@@H](CO)O1 (some centres undefined)	0.987
CCCC[C@@]1(C2CCCC2)Cc2cc(OCC(=O)O)c(Cl)c(Cl)c2C1=O	1.01
O=C(NCCSCc1ccc(Cl)cc1)c1ccc(Cl)cc1	0.907
O=C(O)CCCC[C@@H]1CCSS1	1.01
CCCC1O[C@@H]2CC3C4CCC5=CC(=O)C=CC5(C)C4[C@@H](O)CC3(C)[C@]2(C(=O)CO)O1 (some centres undefined)	0.992
CC(=O)Nc1ccc(S(=O)(=O)Nc2ccc([N+](=O)[O-])cc2)cc1	0.995
O=C(/C=N\Nc1ccccc1)Nc1ccccc1C(=O)O	0.965
O=[N+]([O-])/C=C/c1ccsc1	0.0541
COc1ccc(OC)c(S(=O)(=O)N2CCc3cc(OC)c(OC)cc3C2C)c1 (centres undefined)	0.994
CCCCNC(=O)NCCSCc1ccco1	1.01
O=C(N/N=C\c1cccs1)c1ccccc1CO	0.99
COc1ccc(-c2ccnc(SCC(=O)NCCSCc3ccco3)n2)cc1	1.02
Nc1ccc(C(=O)NCC(=O)O)cc1	0.973
COC(=O)Oc1ccccc1C(=O)O	1.03
O=C(O)c1cccnc1Nc1cccc(C(F)(F)F)c1	0.991
CC(C)(C)NCC(O)c1ccccc1Cl (centres undefined)	1.01
CCOc1ccc(/C=C(\C)[N+](=O)[O-])cc1OC	0.171
CCOP(=S)(OCC)SCn1c(=O)oc2cc(Cl)ccc21	0.994
Nc1ncnc2c1ncn2[C@@H]1O[C@H](COP(=O)(O)OP(=O)(O)OP(=O)(O)OP(=O)(O)OC[C@@H]2O[C@H](n3cnc4c(N)ncnc43)C(O)[C@@H]2O)[C@H](O)C1O (some centres undefined)	0.993
O=C(O)CCCCC1CCSS1 (centres undefined)	1
CCC[C@H]1CC2=C(C[C@@H](CC)CC3=C1C(=O)OC3=O)C(=O)OC2=O	1.02
OCC1NCC(O)C(O)C1O (centres undefined)	1.02
O=[N+]([O-])c1cc([As](=O)(O)O)ccc1O	0.958
C1CNCCN1	1.02
Nc1ncnc2c1ncn2[C@@H]1O[C@H](CO)[C@H](O)C1O (some centres undefined)	1.04
NC(=S)N/N=C\c1cccs1	0.898
NC(=S)N/N=C\c1ccccc1	0.971
Nc1ncnc2c1ncn2C1O[C@H](COP(=O)(O)O)[C@@H](O)[C@H]1O (some centres undefined)	1.01
C=C(C)[C@H]1CC=C(C(=O)O)CC1	0.924
O=[N+]([O-])c1ccc2nsnc2c1	0.738
COC(=O)c1cc(OC)c(OC)cc1-n1c(C)ccc1C	0.983
CCSc1sc(C(=O)OC)c(-c2ccc(Cl)cc2)c1C#N	0.994
O=C1OC2COC(=O)C2C=C1NC(=O)c1ccc(Cl)cc1 (centres undefined)	0.329
O=[N+]([O-])c1ccc(O)c([N+](=O)[O-])c1	0.786
Nc1ncnc2c1ncn2[C@@H]1O[C@H](CO)[C@@H](O)[C@H]1O	0.98
COC(=O)c1cc([N+](=O)[O-])ccc1NC(C)=O	0.986

====

METHOD SUMMARY: chemical genetic growth profiling, strain panel (AID 1159580);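 note: tested at 20 µM; growth read once vehicle control cultures reached saturation at 30 °C; 1 = growth at the plate median or of vehicle wells; lower values mean less growth of the strain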
STUDY CONDITIONS: S. cerevisiae deletion strains, growth OD, locus YDR150W, strain NUM1
The campaign covered roughly 5,500 compounds. About 2,000 (36%) were called active. About 18% were inconclusive and are not listed. No stated cut-off is given here; in the data, active means normalized growth mostly below about 0.91 (no sharp cut-off); inconclusive means no clear call, values can overlap the other calls; inactive means mostly above about 0.92. The list shows a part of the results.
Outcomes: label 1 for active, label 0 for inactive

MOLECULE	CLASSIFICATION
CCC(Cc1c(I)cc(I)c(N)c1I)C(=O)O (stereo not given)	label 0
CC(=O)c1sc(SCc2ccc(Cl)cc2)c2c1CC(C)(C)CC2=O	label 0
CC(O)C(O)[C@H]1CNc2nc(N)[nH]c(=O)c2N1 (stereo not given in full)	label 0
O=[N+]([O-])/C=C/c1ccsc1	label 1
COc1ccccc1OCCNCC(O)COc1cccc2[nH]c3ccccc3c12 (stereo not given)	label 0
NC(=S)N/N=C\c1cccs1	label 0
Oc1c(Br)cc(Br)c2cccnc12	label 1
N[C@@H](Cc1ccc(O)c(O)c1)C(=O)O	label 0
Clc1cc(Cl)c(Cl)c(-n2cccc2)c1Cl	label 0
Oc1c(Cl)cc(Cl)c2cccnc12	label 1
CN(C)C=Nc1nnc(Sc2ncccc2[N+](=O)[O-])s1	label 0
CC(C)(C)NC[C@@H](O)COc1nsnc1N1CCOCC1	label 0
Cc1ccsc1/C=C/C1=NCCCN1C	label 0
CN(C)C(N)=NCCC[C@H](N)C(=O)O	label 0
O=C(CCNNC(=O)c1ccncc1)NCc1ccccc1	label 0
CSc1ccc(/C=C/[N+](=O)[O-])cc1	label 1
CC(=O)Oc1ccc(Cl)c2cccnc12	label 1
Clc1cc(Cl)cc(-n2cccc2)c1	label 0
CCCC1O[C@@H]2CC3C4CCC5=CC(=O)C=CC5(C)C4[C@@H](O)CC3(C)[C@]2(C(=O)CO)O1 (stereo not given in full)	label 0
COc1ccc(-c2c(C)nc3ccc(Cl)cc3c2-c2ccccc2)cc1OC	label 0
CC(=O)O[C@@H]1C[C@@]2(C)[C@H](c3ccoc3)C[C@H]3O[C@]32[C@]2(C)C(=O)C(O)=C3C(C)(C)C(=O)C=C[C@]3(C)C12 (stereo not given in full)	label 0
Fc1cc2n[nH]nc2cc1Cl	label 0
COC(C)(C)CCC[C@H](C)C/C=C/C(C)=C/C(=O)OC(C)C	label 0
COc1cccc(C2C3=C(CC(C)(C)CC3=O)OC3=C2C(=O)CC(C)(C)C3)c1O	label 0
CC1(C)CC2C1(O)CCC1(C)C=CC(O)C21CO (stereo not given)	label 0

====

METHOD SUMMARY: chemical genetic growth profiling, strain panel (AID 1159580);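 note: tested at 20 µM; growth read once vehicle control cultures reached saturation at 30 °C; 1 = growth at the plate median or of vehicle wells; lower values mean less growth of the strain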
STUDY CONDITIONS: S. cerevisiae deletion strains, growth OD, locus YNR030W, strain Alg12
Among all 5,500 compounds or so, about 2,000 (36%) were called active. Inconclusive results (about 18%) are left out. Rule as the data show it: active = normalized growth mostly below about 0.91 (no sharp cut-off); inconclusive = no clear call, values can overlap the other calls; inactive = mostly above about 0.92. Some of the results follow.
Outcome codes: yes (1) (active), no (0) (inactive)

COMPOUND	CLASSIFICATION
NC(=S)N/N=C\c1ccccc1	no (0)
CSC1=NCN(Cc2ccccc2)CN1	no (0)
CCSc1nnc(N)s1	no (0)
O=C(NC(=S)NCc1ccncc1)c1ccccc1	no (0)
Cc1[nH]ncc1-c1ccccc1	no (0)
O=C1OC2COC(=O)C2C=C1NC(=O)c1ccc(Cl)cc1 (configuration not stated)	no (0)
CC1CCN(C(=O)CC#N)CC1	no (0)
COc1ccc(NS(=O)(=O)c2c(C)noc2C)cc1	no (0)
CC(C)c1ccc(NC(=S)NC(=O)c2ccc(C(F)(F)F)cc2)cc1	no (0)
COc1ccc(-c2ccnc(SCC(=O)NCCSCc3ccco3)n2)cc1	no (0)
O=S(=O)(N/N=C\c1ccc(Cl)cc1)c1ccc(-c2ccccn2)s1	yes (1)
O=C(NCCSCc1ccco1)Nc1cc(Cl)cc(Cl)c1	no (0)
NC(=O)c1ccccc1N1CCCCC1	no (0)
COC(=O)c1cc([N+](=O)[O-])ccc1NC(C)=O	no (0)
COc1cc(C2N=C(c3ccc(Cl)cc3)SC(c3ccc(Cl)cc3)=N2)cc(OC)c1OC	no (0)
O=[N+]([O-])c1ccc(SC2=NCCN2)c(Cl)c1	no (0)
O=[N+]([O-])c1ccc2nsnc2c1	yes (1)
O=C(NNC(=S)Nc1ccc(F)cc1)c1ccccc1Cl	no (0)
NC(=S)N/N=C\c1cccs1	yes (1)
C#CCOc1c(Cl)cccc1Cl	no (0)
O=C(N/N=C\c1cccs1)c1ccccc1CO	no (0)
CC(=O)Nc1cc([N+](=O)[O-])ccc1-n1cc(C)c(C(F)(F)F)n1	no (0)
Cc1onc(NC(=O)NC(=O)c2c(F)cccc2Cl)c1Br	no (0)
N#Cc1c(N)sc2c1CCCCC2	no (0)
O=C(NCCSCc1ccco1)c1ccc(Cl)cc1	no (0)
CSc1ccc(/C=C/[N+](=O)[O-])cc1	yes (1)
CN(C)C=Nc1nnc(Sc2ncccc2[N+](=O)[O-])s1	no (0)
